In this section we review reported binding ratio vs parent P54AR4-83v2 values for a set of binders.
TARGET: EGFR (form in the assay not stated) (human, UniProt P00533 25-645, limits assumed)
METHOD_DESCRIPTION: ELISA, NEM conjugate 100 nM
ENDPOINT_NAME: binding ratio vs parent P54AR4-83v2 (ratio)

BINDER: P54AR4-83v2 E14C, NEM conjugate (designed binder, NEM on Cys 14, His-tagged) LPAPKNLVVSEVTCDSARLSWDDPWAFYESFLIQYQESEKVGEAIVLTVPGSERSYDLTGLKPGTEYTVSIYGVHNVYKDTNMRGLPLSAIFTT
OBSERVED_RESULT: 1.27
//
BINDER: P54AR4-83v2 D15C, NEM conjugate (designed binder, NEM on Cys 15, His-tagged) LPAPKNLVVSEVTECSARLSWDDPWAFYESFLIQYQESEKVGEAIVLTVPGSERSYDLTGLKPGTEYTVSIYGVHNVYKDTNMRGLPLSAIFTT
OBSERVED_RESULT: 1.09
//
BINDER: P54AR4-83v2 G60C, NEM conjugate (designed binder, NEM on Cys 60, His-tagged) LPAPKNLVVSEVTEDSARLSWDDPWAFYESFLIQYQESEKVGEAIVLTVPGSERSYDLTCLKPGTEYTVSIYGVHNVYKDTNMRGLPLSAIFTT
OBSERVED_RESULT: 1.02
//
BINDER: P54AR4-83v2 V41C, NEM conjugate (designed binder, NEM on Cys 41, His-tagged) LPAPKNLVVSEVTEDSARLSWDDPWAFYESFLIQYQESEKCGEAIVLTVPGSERSYDLTGLKPGTEYTVSIYGVHNVYKDTNMRGLPLSAIFTT
OBSERVED_RESULT: 0.99
//
BINDER: P54AR4-83v2 G51C, NEM conjugate (designed binder, NEM on Cys 51, His-tagged) LPAPKNLVVSEVTEDSARLSWDDPWAFYESFLIQYQESEKVGEAIVLTVPCSERSYDLTGLKPGTEYTVSIYGVHNVYKDTNMRGLPLSAIFTT
OBSERVED_RESULT: 1.03
//
BINDER: P54AR4-83v2 P2C, NEM conjugate (designed binder, NEM on Cys 2, His-tagged) LCAPKNLVVSEVTEDSARLSWDDPWAFYESFLIQYQESEKVGEAIVLTVPGSERSYDLTGLKPGTEYTVSIYGVHNVYKDTNMRGLPLSAIFTT
OBSERVED_RESULT: 0
//
BINDER: P54AR4-83v2 Y28C, NEM conjugate (designed binder, NEM on Cys 28, His-tagged) LPAPKNLVVSEVTEDSARLSWDDPWAFCESFLIQYQESEKVGEAIVLTVPGSERSYDLTGLKPGTEYTVSIYGVHNVYKDTNMRGLPLSAIFTT
OBSERVED_RESULT: 0.01
//
BINDER: P54AR4-83v2 N76C, NEM conjugate (designed binder, NEM on Cys 76, His-tagged) LPAPKNLVVSEVTEDSARLSWDDPWAFYESFLIQYQESEKVGEAIVLTVPGSERSYDLTGLKPGTEYTVSIYGVHCVYKDTNMRGLPLSAIFTT
OBSERVED_RESULT: 0.97
//
BINDER: P54AR4-83v2 F27C, NEM conjugate (designed binder, NEM on Cys 27, His-tagged) LPAPKNLVVSEVTEDSARLSWDDPWACYESFLIQYQESEKVGEAIVLTVPGSERSYDLTGLKPGTEYTVSIYGVHNVYKDTNMRGLPLSAIFTT
OBSERVED_RESULT: 0.07
